B1: Alpha-lactalbumin, P00712 (parent)
chain: MMSFVSLLLVGILFHATQAEQLTKCEVFQKLKDLKDYGGVSLPEWVCTAFHTSGYDTQAIVQNNDSTEYGLFQINNKIWCKDDQNPHSRNICNISCDKFLDDDLTDDIVCAKKILDKVGINYWLAHKALCSEKLDQWLCEKL

Variants of: B1
APPLIED_CONDITIONS: Capra hircus; pH 7.5; 25 °C; GdnHCl; CD; Tris 20 mM; Ca2+ 10 mM; structure 1HFY; whole UniProt chain shown
ASSAY_ENDPOINT: denaturant m value (kcal/mol/M)
Quick reminder: number only, in kcal/mol/M, skip the unit.

The examples below pair each entry with its known result.
W79F : 2.65
W123F : 2.8

Input: Entry under review: W137F . Reported denaturant m value?
Output: 3.06

Input: Ok, now W45F
Output: 2.81

// data source = FireProtDB (doi:10.1021/bi0512400)
